# assay.system: cyclooxygenase (Homo sapiens)
# Construct: incubating a test compound with heparinised human blood; endogenous in cells
# Sequence (P23219 24-599): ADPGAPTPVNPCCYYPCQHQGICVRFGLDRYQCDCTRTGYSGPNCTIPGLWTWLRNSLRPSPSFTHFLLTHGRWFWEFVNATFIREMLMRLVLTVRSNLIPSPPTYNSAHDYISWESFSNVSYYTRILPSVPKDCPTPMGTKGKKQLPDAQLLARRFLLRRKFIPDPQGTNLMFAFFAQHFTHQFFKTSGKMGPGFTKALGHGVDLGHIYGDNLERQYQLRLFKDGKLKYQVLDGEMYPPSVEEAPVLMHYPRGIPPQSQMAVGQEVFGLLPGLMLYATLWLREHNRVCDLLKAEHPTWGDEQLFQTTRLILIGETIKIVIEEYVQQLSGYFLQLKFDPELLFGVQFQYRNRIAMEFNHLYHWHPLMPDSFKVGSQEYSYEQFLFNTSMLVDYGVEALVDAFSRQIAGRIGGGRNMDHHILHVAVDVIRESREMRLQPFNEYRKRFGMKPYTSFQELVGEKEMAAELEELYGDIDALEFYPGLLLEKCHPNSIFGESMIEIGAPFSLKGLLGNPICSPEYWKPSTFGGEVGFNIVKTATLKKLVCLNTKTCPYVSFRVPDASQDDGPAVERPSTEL
# protocol.description: Test b): heparinised human blood challenged with A23187, TxB₂ radioimmunoassay
# particulars: read-out: IC₅₀ (TxB₂)
pIC50: −log10 of the molar value.
measured.metric: pIC50

- CO[C@@H]1CCC[C@]1(OC)c1cccc(OCC#Cc2ccccn2)c1 (relative stereo) [Example 2]: < 4.40
